The reported numbers originate from patent US10023559B2.

- Target system: rat TAAR1 (Rattus norvegicus (Rat))
Observed property: Kd

INSERT INTO assay_data (compound, observed_property, result) VALUES
  ('CCN(C[C@H]1COC(N)=N1)c1ccccc1 [reference compound]', 'Kd', '~2.3 nM');

* * *

- Target system: UniProt Q923Y8
- Sequence (Q923Y8 whole entry): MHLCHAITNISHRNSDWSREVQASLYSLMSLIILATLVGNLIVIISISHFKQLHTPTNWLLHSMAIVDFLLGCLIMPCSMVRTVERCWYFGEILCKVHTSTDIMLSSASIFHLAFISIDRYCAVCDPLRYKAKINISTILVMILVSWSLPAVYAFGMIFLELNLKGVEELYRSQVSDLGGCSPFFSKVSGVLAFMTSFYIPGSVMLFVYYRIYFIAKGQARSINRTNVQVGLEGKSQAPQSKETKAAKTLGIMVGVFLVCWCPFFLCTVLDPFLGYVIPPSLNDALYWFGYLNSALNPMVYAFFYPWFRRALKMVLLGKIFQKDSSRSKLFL
pKd: −log10 of the molar value.
Observed property: pKd

INSERT INTO results (molecule, result) VALUES
  ('CCN(C[C@H]1COC(N)=N1)c1ccccc1 [reference compound]', '~9.15');

* * *

- Target system: rat TAAR1 (Rattus norvegicus (Rat), UniProt Q923Y9)
- Sequence (Q923Y9 whole entry): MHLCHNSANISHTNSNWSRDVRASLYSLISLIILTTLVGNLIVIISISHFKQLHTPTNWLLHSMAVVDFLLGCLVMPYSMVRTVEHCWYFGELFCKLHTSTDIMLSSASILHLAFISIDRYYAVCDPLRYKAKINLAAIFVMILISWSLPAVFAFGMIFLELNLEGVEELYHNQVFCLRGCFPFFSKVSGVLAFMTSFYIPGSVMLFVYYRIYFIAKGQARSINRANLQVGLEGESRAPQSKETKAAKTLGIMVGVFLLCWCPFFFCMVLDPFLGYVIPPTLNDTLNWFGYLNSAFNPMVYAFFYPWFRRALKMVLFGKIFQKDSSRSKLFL
- Assay procedure: Radioligand binding assay on rat TAAR1
- Protocol conditions: read-out: Ki(μM) rat; rat TAAR1, HEK-293 membranes, second value of cell pair mouse/rat
Recorded Ki by entry
Observed property: Ki

INSERT INTO measurements (compound, result) VALUES
  ('CO[C@@H]1CN[C@@H]1Cc1ccccc1 [Example 100, (2R,3R)-2-benzyl-3-methoxyazetidine]', '0.151 µM'),
  ('O=C(Nc1cc(F)c(C=C2CNC2)c(F)c1)c1ccc(Cl)nc1 [Example 84]', '0.0014 µM'),
  ('FC(F)(F)c1nccc(Nc2ccc(OC3CNC3)cc2)n1 [Example 8]', '0.165 µM'),
  ('O=C(Nc1ccc(OC2CNC2)cc1)c1[nH]nc(-c2ccc(Cl)cc2)c1Cl [Example 34]', '0.0021 µM'),
  ('FC1(Cc2ccccc2)CNC1 [Example 46, 3-benzyl-3-fluoro-azetidine]', '0.552 µM'),
  ('O=C(Nc1ccc(OC2CNC2)cc1)c1cnc(C2CC2)nc1 [Example 14]', '0.1 µM'),
  ('O=C(Nc1ccc(CC2(F)CNC2)cc1)c1cnc(OCC(F)(F)F)nc1 [Example 69]', '0.0361 µM'),
  ('COC1(Cc2ccc(NC(=O)c3ccc(Cl)nc3)cc2)CNC1 [Example 73]', '0.0543 µM'),
  ('O=C(Nc1ccc(OC2CNC2)cc1)c1cnc(OCC(F)(F)F)cn1 [Example 77]', '0.0187 µM'),
  ('O=C(Nc1ccc(OC2CNC2)cc1)c1cnc(OCC(F)(F)F)nc1 [Example 19]', '0.0208 µM'),
  ('O=C(Nc1ccc(CC2(F)CNC2)cc1)c1ccc(Cl)nc1 [Example 54]', '0.0182 µM'),
  ('O=C(Nc1ccc(SC2CNC2)cc1)Nc1cccc(Cl)c1 [Example 112]', '0.0111 µM'),
  ('CCc1n[nH]c(C(=O)Nc2ccc(OC3CNC3)cc2)c1C [Example 11]', '0.0808 µM'),
  ('Cc1[nH]nc(C(=O)Nc2ccc(OC3CNC3)cc2)c1Br [Example 48]', '0.0943 µM'),
  ('COc1cc(C(=O)Nc2ccc(C[C@H]3NC[C@H]3F)cc2)ccn1 [Example 120]', '> 1.5 µM'),
  ('Cc1cc(C(=O)Nc2ccc(C[C@@H]3NC[C@@H]3F)cc2)nc(C(F)(F)F)n1 [Example 126]', '0.0224 µM'),
  ('O=C(Nc1ccc(Cl)c(C(F)(F)F)c1)c1ccc(OC2CNC2)cc1 [Example 37]', '0.0026 µM'),
  ('O=C(Nc1ccc(OC2CNC2)cc1)c1cnc(C(F)(F)F)cn1 [Example 75]', '0.0106 µM'),
  ('COc1ccc(NC(=O)Nc2ccc(C=C3CNC3)cc2)cc1 [Example 117]', '0.0154 µM');
